TESTED TARGET: human M2 receptor (Homo sapiens, UniProt P08172)
Assay type: cell-based
CONDITION DETAILS: shift in the acetylcholine dose-response curve (Allosteric EC50 shift, GraphPad PRISM); α >1 = positive cooperativity

COMPOUND	Cooperativity (alpha factor)
CC(C)(CC(F)(F)F)NC(=O)c1cn(-c2c(F)cc(F)cc2F)c2nc(N3C[C@@H](O)[C@H](O)C3)ccc2c1=O	32
CN(CC(=O)O)c1ccc2c(=O)c(C(=O)N[C@@H](C3CC3)C(F)(F)F)cn(-c3c(F)cc(F)cc3F)c2n1	11
O=C(NC12CC3CC(CC(C3)C1)C2)c1cn(-c2ccc(F)cc2F)c2nc(N3CCOC3=O)ccc2c1=O	18
O=C(NC(c1c(F)cccc1F)C(F)(F)F)c1cn(-c2ccc(F)cc2F)c2nc(N3CC[C@H](F)C3)ccc2c1=O (single isomer, unassigned) [Example 243]	33
CCC(NC(=O)c1cn(-c2ccc(F)cc2F)c2nc(N3CCN(C(=O)OC)CC3)ccc2c1=O)C(F)(F)F (single isomer, unassigned; enantiomer a) [Example 24]	25

----------
Item-by-item account of EC50
TESTED TARGET: human M2 receptor (Homo sapiens)
Sequence (P08172 1-466): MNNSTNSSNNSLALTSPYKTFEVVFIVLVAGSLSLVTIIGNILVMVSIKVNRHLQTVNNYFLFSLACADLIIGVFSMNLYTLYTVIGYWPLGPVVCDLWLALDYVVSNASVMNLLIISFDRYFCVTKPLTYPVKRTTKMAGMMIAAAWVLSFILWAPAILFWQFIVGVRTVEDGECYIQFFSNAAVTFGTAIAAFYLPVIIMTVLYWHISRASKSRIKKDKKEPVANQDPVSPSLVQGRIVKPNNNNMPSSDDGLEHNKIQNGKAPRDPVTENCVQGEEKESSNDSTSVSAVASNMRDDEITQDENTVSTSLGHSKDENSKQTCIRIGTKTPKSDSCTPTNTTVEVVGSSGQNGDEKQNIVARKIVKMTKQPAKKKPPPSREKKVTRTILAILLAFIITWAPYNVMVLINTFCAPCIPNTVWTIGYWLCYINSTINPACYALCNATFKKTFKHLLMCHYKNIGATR
CONDITION DETAILS: Receptor activity EC50, allosteric potency at EC20 acetylcholine; M2-GIRK1/4 reporter cells; in some cases mean of two or more determinations

COMPOUND	EC50 / nM
COC(=O)N1CCN(c2ccc3c(=O)c(C(=O)NC45CC(C4)C5)cn(-c4c(F)cc(F)cc4F)c3n2)CC1	52
CC(NC(=O)c1cn(-c2c(F)cc(F)cc2F)c2nc(N3C[C@@H](O)CC3=O)ccc2c1=O)C1CCC1 (mixture of isomers)	10
O=C(N[C@H](C(F)F)C1CC1)c1cn(-c2c(F)cc(F)cc2F)c2nc(N3C[C@@H](O)CC3=O)ccc2c1=O	84
O=C(N[C@@H](C1CC1)C(F)(F)F)c1cn(-c2c(F)cc(F)cc2F)c2nc(N3CCC(CO)C3=O)ccc2c1=O (stereo partly drawn)	23
CC[C@@H](NC(=O)c1cn(-c2ccc(F)cc2F)c2nc(N3C(=O)CCC3C)ccc2c1=O)C(F)(F)F (single isomer, unassigned) [Example 427]	19
CCC(COC(F)(F)F)NC(=O)c1cn(-c2c(F)cc(F)cc2F)c2nc(N3C[C@@H](O)[C@H](O)C3)ccc2c1=O (single isomer, unassigned) [Example 577]	20
